Tested on: Klebsiella pneumoniae expressing VIM-1 (IHMA599644)
Assay: Antibiotic potentiation activity: synergistic concentration (MITC95) with imipenem, growth by OD600
Format: cell-based
Conditions: 95% inhibition of bacterial growth, strain IHMA599644
Property measured: VIM1 KP599644 MITC95 (µM)

# Structure string, Target desc, Property measured, Inequality symbol, Numeric value
records = [
    ("CCC[C@H](C(=O)O)[C@H](Cc1ccc(N2CCN(c3ccncc3)CC2)cc1)c1nn[nH]n1", "Klebsiella pneumoniae expressing VIM-1 (IHMA599644)", "VIM1 KP599644 MITC95", "=", 75),
    ("CCCC[C@@H](C(=O)O)[C@@H](Cc1ccc(Br)cc1)c1nnn[nH]1", "Klebsiella pneumoniae expressing VIM-1 (IHMA599644)", "VIM1 KP599644 MITC95", ">", 200),
    ("CC(C)C[C@H](C(=O)O)[C@H](Cc1ccc(-c2ccc([C@@H]3OC(=O)N[C@@H]3C)cc2)cn1)c1nn[nH]n1", "Klebsiella pneumoniae expressing VIM-1 (IHMA599644)", "VIM1 KP599644 MITC95", ">", 200),
    ("CCC[C@H](C(=O)O)[C@H](Cc1ccc(NCCO)cn1)c1nnn[nH]1", "Klebsiella pneumoniae expressing VIM-1 (IHMA599644)", "VIM1 KP599644 MITC95", "=", 18.8),
]

====

Tested on: Klebsiella pneumoniae expressing VIM-1 (IHMA599644)
Assay: Antibiotic potentiation activity: synergistic concentration (MITC95) with imipenem, growth by OD600
Assay type: cell-based
Settings: 95% inhibition of bacterial growth, strain IHMA599644

# Compound, Inequality symbol, VIM1 KP599644 MITC95 [µM]
data = [
    ("NCc1ccc(-c2ccc(C[C@H](c3nnn[nH]3)[C@@H](C(=O)O)C3CCCC3)cc2)cc1 [Example 75]", "=", 9.4),
    ("CCC[C@H](C(=O)O)[C@H](Cc1ccc(NCCN2CCN(C(C)C)CC2)cc1)c1nn[nH]n1 [Example 219]", "=", 100),
    ("CCC[C@H](C(=O)O)[C@H](Cc1ccc(C(N)=O)cc1)c1nn[nH]n1 [Example 45]", "=", 25),
    ("CCC[C@H](C(=O)O)[C@H](Cc1ccc(-c2ccc3nncn3c2)cc1)c1nnn[nH]1 [Example 239]", "=", 75),
    ("CCC[C@H](C(=O)O)[C@H](Cc1ccc(NC)cn1)c1nnn[nH]1 [Example 151]", "=", 12.5),
    ("CCC[C@H](C(=O)O)[C@H](Cc1ccc(-c2cnn(C)c2)cc1)c1nnn[nH]1 [Example 233]", "=", 75),
    ("CCC[C@H](C(=O)O)[C@H](Cc1cnn2ncccc12)c1nnn[nH]1 [Example 156]", "=", 25),
    ("Nc1ccc(C[C@H](c2nnn[nH]2)[C@@H](C(=O)O)C2CCCC2)cn1 [Example 122]", "=", 6.2),
    ("CC(C)C[C@H](C(=O)O)[C@H](Cc1ccc(C#N)cc1)c1nnn[nH]1 [Example 42]", "=", 37.5),
    ("CC(C)=CCCC(C(=O)O)[C@H](Cc1ccccc1)c1nnn[nH]1 (stereo in doubt) [Example 15]", "=", 200),
    ("CC(C)[C@H](C(=O)O)[C@H](Cc1ccccc1C1=CCNC1)c1nnn[nH]1 [Example 70]", "=", 50),
    ("CCC[C@H](C(=O)O)[C@H](Cc1ccc(N2CCN(C(C)=O)CC2)cc1)c1nn[nH]n1 [Example 228]", "=", 200),
    ("COCCC[C@H](C(=O)O)[C@H](Cc1ccccc1)c1nnn[nH]1 [Example 9]", "=", 200),
    ("CCC[C@H](C(=O)O)[C@H](Cc1ccc(N2CCN(c3ccccc3)CC2)cc1)c1nn[nH]n1 [Example 226]", ">", 200),
    ("CC(C)[C@H](C(=O)O)[C@H](Cc1csc(C2CCNC2)n1)c1nnn[nH]1 (some centres unmarked) [Example 108]", "=", 37),
    ("CC(C)[C@H](C(=O)O)[C@H](Cc1ccc(C2=CCNCC2)cc1)c1nnn[nH]1 [Example 59]", "=", 150),
    ("CCC[C@H](C(=O)O)[C@H](Cc1ccc(C#N)cn1)c1nnn[nH]1 [Example 84]", "=", 50),
]

====

# log10 IC50 values compiled below
Target: VIM-1 (Pseudomonas aeruginosa, UniProt A0A0F7KYQ8)
Experiment: Enzyme activity: determination of IC50, fluorescence assay with CCF2-FA substrate
Type: biochemical
Settings: enzyme 30 pM, CCF2-FA 1.25 μM, 2 hours at 25° C.; read-out: VIM1 IC50
Property measured: log10 IC50 (log10 of the value in nM)

# Molecule, Target desc, log10 IC50
data = [
    ("CC(C)C[C@H](C(=O)O)[C@H](Cc1ccc(C2CCNCC2)cn1)c1nnn[nH]1", "VIM-1 (Pseudomonas aeruginosa, UniProt A0A0F7KYQ8)", 1.11),
    ("CC(C)C[C@H](C(=O)O)[C@H](Cc1ccc(N)nc1)c1nnn[nH]1 [Example 112, 2,2,2-trifluoroacetate]", "VIM-1 (Pseudomonas aeruginosa, UniProt A0A0F7KYQ8)", 0.69),
    ("CC(C)[C@H](C(=O)O)[C@H](Cc1ccc(Br)nc1)c1nnn[nH]1", "VIM-1 (Pseudomonas aeruginosa, UniProt A0A0F7KYQ8)", 0.90),
    ("CCC[C@H](C(=O)O)[C@H](Cc1ccc(-c2cccc(OC3CCNCC3)n2)cc1)c1nn[nH]n1", "VIM-1 (Pseudomonas aeruginosa, UniProt A0A0F7KYQ8)", 0.83),
    ("CCC[C@H](C(=O)O)[C@H](Cc1ccc(Cl)cn1)c1nnn[nH]1", "VIM-1 (Pseudomonas aeruginosa, UniProt A0A0F7KYQ8)", 1.85),
    ("CCC[C@H](C(=O)O)[C@H](Cc1ccc(-c2cnc(N3CCCC3)s2)cc1)c1nn[nH]n1", "VIM-1 (Pseudomonas aeruginosa, UniProt A0A0F7KYQ8)", 0.61),
    ("CCC[C@H](C(=O)O)[C@H](Cc1ccc(-c2cnc(NC(C)=O)nc2)nc1)c1nn[nH]n1", "VIM-1 (Pseudomonas aeruginosa, UniProt A0A0F7KYQ8)", 0.76),
    ("CC[C@H](C)[C@H](C(=O)O)[C@H](Cc1ccc(C2CCNC2)cc1)c1nnn[nH]1 (some centres unmarked)", "VIM-1 (Pseudomonas aeruginosa, UniProt A0A0F7KYQ8)", 0.64),
]

====

Target: VIM-1 (Pseudomonas aeruginosa, UniProt A0A0F7KYQ8)
Assay: Enzyme activity: determination of IC50, fluorescence assay with CCF2-FA substrate
Type: biochemical
Details: enzyme 30 pM, CCF2-FA 1.25 μM, 2 hours at 25° C.; read-out: VIM1 IC50
# log10 of IC50 values compiled below
Property measured: log10 of IC50 (log10 of the value in nM)

# Compound, Property measured, Numeric value
records = [
    ("O=C(O)[C@@H](CC1CCCC1)[C@H](Cc1ccccc1)c1nnn[nH]1 [Example 10]", "log10 of IC50", 1.46),
    ("CC(C)C[C@H](C(=O)O)[C@H](Cc1ccc(C2CCNCC2)nc1)c1nnn[nH]1 [Example 103]", "log10 of IC50", 0.53),
    ("O=C(O)[C@@H](C1CCCC1)[C@H](Cc1ccc(-c2cn[nH]c2)cc1)c1nnn[nH]1 [Example 63]", "log10 of IC50", 0.04),
    ("CCC[C@H](C(=O)O)[C@H](Cc1ccc(NCCN2CCCC(O)C2)cc1)c1nn[nH]n1 (some centres unmarked) [Example 220]", "log10 of IC50", 1.88),
    ("CC(C)C[C@H](C(=O)O)[C@H](Cc1ccc(-c2ccc3c(c2)OCC(=O)N3)nc1)c1nn[nH]n1 [Example 180]", "log10 of IC50", 0.23),
    ("CCC[C@H](C(=O)O)[C@H](Cc1ccc(-c2csc(N3CCOCC3)n2)cc1)c1nn[nH]n1 [Example 208]", "log10 of IC50", 1.20),
    ("CCC[C@H](C(=O)O)[C@H](Cc1ccc(-c2cnc(N3CCCCC3)s2)cc1)c1nn[nH]n1 [Example 204]", "log10 of IC50", 0.32),
    ("CC(C)[C@H](C(=O)O)[C@H](Cc1csc(C2=CCNC2)n1)c1nnn[nH]1 [Example 71]", "log10 of IC50", 2.08),
]

====

Target: IMP-1 (Serratia marcescens)
Sequence (P52699 19-246, looked up, species assumed): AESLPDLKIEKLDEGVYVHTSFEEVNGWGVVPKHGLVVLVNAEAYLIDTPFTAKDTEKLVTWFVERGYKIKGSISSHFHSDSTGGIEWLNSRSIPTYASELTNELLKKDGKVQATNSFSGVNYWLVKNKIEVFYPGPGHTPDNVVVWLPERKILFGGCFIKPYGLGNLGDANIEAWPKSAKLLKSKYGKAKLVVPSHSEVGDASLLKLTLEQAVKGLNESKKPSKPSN
Assay: Enzyme activity: determination of IC50, fluorescence assay with CCF2-FA substrate
Format: biochemical
Conditions: enzyme 2 pM, CCF2-FA 1.25 μM, 2 hours at 25° C.; read-out: IMP1 IC50
Property measured: log10 IC50 (log10 of the value in µM)

# Compound, log10 IC50
rows = [
    ("CCC[C@H](C(=O)O)[C@H](Cc1ccc(N2CCNCC2)nc1)c1nnn[nH]1 [Example 145]", 1.08),
    ("CC(C)[C@H](C(=O)O)[C@H](Cc1ccc(OCC(N)CO)nc1)c1nnn[nH]1 (some centres unmarked) [Example 142]", 0.70),
    ("CNc1ccc(C[C@H](c2nnn[nH]2)[C@@H](C(=O)O)C(C)C)cn1 [Example 152]", 0.72),
    ("CC(C)C[C@H](C(=O)O)[C@H](Cc1ccc(CN)c(F)c1)c1nnn[nH]1 [Example 56]", 0.23),
    ("CC(C)[C@H](C(=O)O)[C@H](Cc1ccc(N)nc1)c1nnn[nH]1 [Example 121]", 0.78),
    ("CCC[C@H](C(=O)O)[C@H](Cc1ccc(C(N)=O)cc1)c1nn[nH]n1 [Example 45]", -0.07),
    ("CCC(C)[C@H](C(=O)O)[C@H](Cc1ccccc1)c1nnn[nH]1 (some centres unmarked) [Example 19]", -1.21),
    ("CCC[C@H](C(=O)O)[C@H](Cc1cccc2sc(N)nc12)c1nn[nH]n1 [Example 155]", -0.54),
    ("CCC[C@H](C(=O)O)[C@H](Cc1ccc(N2CCN(c3ccccc3)CC2)cc1)c1nn[nH]n1 [Example 226]", -1.41),
    ("CC(C)[C@H](C(=O)O)[C@H](Cc1ccc(C2CCNC2)c(F)c1)c1nnn[nH]1 (some centres unmarked) [Example 109]", -0.35),
    ("CCC[C@H](C(=O)O)[C@H](Cc1ccc(-c2ccc(N(C)C)nc2)cc1)c1nn[nH]n1 [Example 189]", -1.54),
    ("CC(C)C[C@H](C(=O)O)[C@H](Cc1ccc(-c2ccc(CO)cc2)cn1)c1nn[nH]n1 [Example 171]", -0.13),
    ("CCC[C@H](C(=O)O)[C@H](Cc1ccc(-c2ccc(C(=O)NC)cc2)cc1)c1nn[nH]n1 [Example 202]", -1.66),
    ("CC(C)[C@H](C(=O)O)[C@H](Cc1ccc(C2=CCNC2)nc1)c1nnn[nH]1 [Example 64]", 1.08),
    ("CC(C)[C@H](C(=O)O)[C@H](Cc1ccccc1)c1nnn[nH]1 [Example 20]", -0.41),
    ("CCC[C@H](C(=O)O)[C@H](Cc1ccc(-c2c(C)nn(C)c2C)nc1)c1nnn[nH]1 [Example 158]", -1.21),
    ("O=C(O)[C@@H](C1CCCC1)[C@H](Cc1ccc(C2=CCNC2)cc1)c1nnn[nH]1 [Example 61]", -0.82),
]

Where do the numbers come from? From patent US9839642B2.
